Test: viability loss with induced miR-34 in A549 – imaging, A549 dox-inducible miR-34, nuclei and caspase counts, primary screen (AID 1347080)
Conditions: A549 miR-34 inducible, Hoechst nuclei count, 48 h; measured here: total cells without miR-34 induction
Entries annotated with measured cell count
Output spec: single numeric token, no unit.

Guide cases for cell count, answers given:
| COMPOUND | cell count |
| --- | --- |
| Cc1ccc(Cl)cc1N(CC(=O)Nc1c(F)cccc1F)S(C)(=O)=O | 9110 |
| COCCn1cncc1CNc1nccc(-c2c(C)nn(C)c2C)n1 | 9180 |
| N#CC(=C1SCC(c2ccc(Cl)cc2Cl)S1)n1ccnc1 (centres undefined) | 9050 |

Next, consider the following compound.
Determine its reported cell count: "CN(Cc1cnc2ccccc2n1)C(=O)Nc1n[nH]c(-c2ccco2)n1" 9030

----------
Assay: antimalarial activity against Dd2 strain (AID 2302);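 also: 0% = DMSO untreated growth and 100% = chloroquine plus artemisinin killed control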
Conditions: P. falciparum Dd2 in RBCs, LDH growth readout, 72 h; at 2 µM
Calls of active or inactive are those of the source.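 Rule for the calls: active = growth inhibition above 50% at the single 2 µM test dose, taken to imply half-maximal potency below 2 µM; inactive = the rest.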
Assign a class; possible classes are true (1) (active), false (0) (inactive)

Solved cases below.
| MOLECULAR STRING | CLASS |
| --- | --- |
| Oc1cccc(-c2nc(-c3cccc(I)c3)c(-c3ccc(-c4nc(-c5cccc(O)c5)[nH]c4-c4cccc(I)c4)cc3)[nH]2)c1 | true (1) |
| O=[N+]([O-])c1ccc(-c2nc3ccc(C4=N[C@H]5CCCC[C@H]5N4)cc3[nH]2)cc1 | false (0) |
| CC(C)C[C@@H](C(=O)N[C@H](C(=O)Nc1nccs1)C(C)(C)C)[C@H](CCC(F)(F)F)N(O)C=O | true (1) |

State the result this test recorded for "O=C(Nc1cccc(-c2nn3ccccc3c2-c2ccnc(Nc3ccc(-c4cc[nH]n4)cc3)n2)c1)c1c(F)cccc1F" . true (1)

I would be grateful if you could indicate the recorded call for "COc1cc(-c2nc(-c3ccc4c(c3)CCC4=NO)c(-c3ccncc3)[nH]2)ccc1OCCN1CCN(C)CC1" . true (1)

Just curious, what result did "Oc1ccc(-c2nc(-c3ccc4oc5ccc(-c6[nH]c(-c7ccc(O)cc7)nc6-c6ccccc6)cc5c4c3)c(-c3ccccc3)[nH]2)cc1" get here? true (1)

Kindly provide the recorded test outcome for the following compound: "CCC[C@@H]([C@@H](CC(C)C)C(=O)N[C@@H](CCCN=C(N)NS(C)(=O)=O)C(=O)Nc1nccs1)N(O)C=O" false (0)

----------
Assay: P. berghei load reduction in hepatocytes – cell-based, HepG2, luciferase luminescence, HepG2 viability, primary screen (AID 624349);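 also: 100% = mean of DMSO negative control wells on the same plate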
Settings: P. berghei liver stage in HepG2, luciferase luminescence, concentration not given here; measured here: HepG2 viability without parasites
Listed compounds paired with reported viability
Numbers only here, please. The scale is %.

The following compounds have reported results that may help.
| COMPOUND | U | viability |
| --- | --- | --- |
| CC12CCC3c4ccc(OC(=O)c5ccccc5)cc4CCC3C1CCC2O (centres undefined) | % | 95.7 |
| COc1c(O)cc2c(c1O)C1OC(CO)C(O)C(O)C1OC2=O (centres undefined) | % | 106 |
| COc1cc2ncn(-c3cc(OCc4ccc(S(C)(=O)=O)cc4)c(C(N)=O)s3)c2cc1OC | % | 67.4 |

For the compound "CNCCNS(=O)(=O)c1cccc2cnccc12" , report viability. 111
